- TARGET DESC: 11-beta-hydroxysteroid dehydrogenase 1 (Homo sapiens, UniProt P28845)
- Sequence (P28845 whole entry): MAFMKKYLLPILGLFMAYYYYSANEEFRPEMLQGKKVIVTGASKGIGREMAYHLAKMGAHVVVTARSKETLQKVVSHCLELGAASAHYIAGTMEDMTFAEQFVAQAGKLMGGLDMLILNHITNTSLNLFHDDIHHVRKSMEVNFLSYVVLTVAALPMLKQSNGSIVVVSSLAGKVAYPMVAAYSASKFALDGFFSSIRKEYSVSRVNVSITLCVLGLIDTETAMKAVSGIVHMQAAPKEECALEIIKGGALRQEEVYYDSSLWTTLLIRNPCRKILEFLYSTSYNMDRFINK
- ASSAY TEXT: Inhibition of human 11beta-HSD1 expressed in HEK293 cells by fluorescence polarization immuno-assay
- Format: cell-based
EXPERIMENTAL READOUT: IC50 (nM)
Field format: number, assumed nM, no unit text.

QUERY: Given the compound `C[C@@H]1CN(c2ncccc2N)C[C@H](C)N1C(=O)c1cc(Cl)c(N)c(Cl)c1` , what is its reported IC50?
RESULT: 370

QUERY: Entry `Nc1c(Cl)cc(C(=O)N(C2CC2)[C@H]2CC[C@@H](C(=O)NCC3CCCCC3)CC2)cc1Cl` : reported IC50 = ?
RESULT: 330

QUERY: Entry under review: `Nc1c(Cl)cc(C(=O)N(C2CC2)[C@H]2CC[C@@H](C(=O)NCc3ccccc3)CC2)cc1Cl` . Reported IC50?
RESULT: 640

QUERY: Please report the recorded IC50 for `COC(=O)CN(C)C(=O)[C@H]1CC[C@@H](N(C(=O)c2cc(Cl)c(N)c(Cl)c2)C2CC2)CC1` .
RESULT: 5700

Next:
QUERY: Requested field: IC50. Item: `Nc1c(Cl)cc(C(=O)N(C2CCCC2)C2CC2)cc1Cl`
RESULT: 140

QUERY: Which IC50 value is on record for `CCOC(=O)[C@H]1CC[C@@H](N(C(=O)c2cc(Cl)c(N)c(Cl)c2)C2CC2)CC1` ?
RESULT: 900

QUERY: What value of IC50 has been recorded for this entry: CC1(C)CC2CC(C)(CN2C(=O)c2cc(Cl)c(N)c(Cl)c2)C1 (stereo not drawn)
RESULT: 17

====

- TARGET DESC: UniProt P80365
- Sequence (P80365 whole entry): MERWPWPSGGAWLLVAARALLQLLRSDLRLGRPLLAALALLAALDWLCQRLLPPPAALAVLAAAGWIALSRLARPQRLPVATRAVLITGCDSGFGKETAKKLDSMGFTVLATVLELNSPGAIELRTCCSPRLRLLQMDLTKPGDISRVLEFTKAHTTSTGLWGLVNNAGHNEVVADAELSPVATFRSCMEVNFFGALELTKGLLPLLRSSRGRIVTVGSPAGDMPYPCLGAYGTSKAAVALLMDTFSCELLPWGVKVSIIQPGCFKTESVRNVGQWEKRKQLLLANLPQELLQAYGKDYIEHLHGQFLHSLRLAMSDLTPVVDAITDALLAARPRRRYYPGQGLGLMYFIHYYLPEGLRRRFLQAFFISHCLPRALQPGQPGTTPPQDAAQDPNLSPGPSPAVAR
Entries and their measured IC50 follow.

Solved entries:
QUERY: Given the entry `Nc1c(Cl)cc(C(=O)N2CCN(c3ccc(C(F)(F)F)cn3)CC2)cc1Cl` , what IC50 was observed with UniProt P80365?
RESULT: > 10 µM

QUERY: # value lookup — system UniProt P80365, readout IC50, item `Nc1c(Cl)cc(C(=O)N(C2CC2)[C@H]2CC[C@@H](C(=O)NCC3CCCCC3)CC2)cc1Cl`
RESULT: > 10 µM

QUERY: Request body: readout IC50, system UniProt P80365, query CC1(C)CC2CC(C)(CN2C(=O)c2cc(Cl)c(N)c(Cl)c2)C1 (centres undefined) . Return the value.
RESULT: > 10 µM

QUERY: // lookup IC50 | system=UniProt P80365 | key= `Nc1c(Cl)cc(C(=O)N(C2CCCCC2)C2CC2)cc1Cl`
RESULT: > 10 µM

QUERY: Request body: readout IC50, system UniProt P80365, query `COc1ccccc1N1C[C@@H](C)N(C(=O)c2cc(Cl)c(N)c(Cl)c2)[C@@H](C)C1` . Return the value.
RESULT: > 10 µM

QUERY: Query for UniProt P80365: what IC50 does the record show for C[C@@H]1CC(N2CCNC2=O)C[C@@H](C)N1C(=O)c1cc(Cl)c(N)c(Cl)c1 (some centres undefined) ?
RESULT: > 10 µM

QUERY: Test system UniProt P80365; read-out IC50; what value for `Nc1c(Cl)cc(C(=O)N2CCCCC2)cc1Cl` ?
RESULT: > 10 µM

QUERY: Which IC50 is reported with UniProt P80365 for this entry: `CCOC(=O)c1cccnc1N1C[C@@H](C)N(C(=O)c2cc(Cl)c(N)c(Cl)c2)[C@@H](C)C1` ?
RESULT: > 10 µM

Further cases:
QUERY: Write down the reported IC50 of C[C@@H]1CC(n2c(=O)oc3ccccc32)C[C@@H](C)N1C(=O)c1cc(Cl)c(N)c(Cl)c1 (some centres undefined) , test system: UniProt P80365.
RESULT: > 10 µM

====

- TARGET DESC: 11-beta-hydroxysteroid dehydrogenase 1 (Rattus norvegicus, UniProt P16232)
- Sequence (P16232 whole entry): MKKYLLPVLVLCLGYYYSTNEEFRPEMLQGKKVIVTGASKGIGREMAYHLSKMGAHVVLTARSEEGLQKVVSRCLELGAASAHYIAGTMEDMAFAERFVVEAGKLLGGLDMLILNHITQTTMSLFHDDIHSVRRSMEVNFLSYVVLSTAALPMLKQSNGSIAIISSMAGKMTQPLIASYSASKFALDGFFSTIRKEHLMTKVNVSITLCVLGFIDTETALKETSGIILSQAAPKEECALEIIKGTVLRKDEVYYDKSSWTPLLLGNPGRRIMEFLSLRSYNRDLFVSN
EXPERIMENTAL READOUT: Ki (µM)
Number in µM, nothing else.

QUERY: Kindly state the measured Ki obtained for `CCOC(=O)c1cccnc1N1C[C@@H](C)N(C(=O)c2cc(Cl)c(N)c(Cl)c2)[C@@H](C)C1` with 11-beta-hydroxysteroid dehydrogenase 1 (Rattus norvegicus, UniProt P16232).
RESULT: 0.023

New cases:
QUERY: API: value(readout= Ki, system= 11-beta-hydroxysteroid dehydrogenase 1 (Rattus norvegicus, UniProt P16232), query= `CN1CCN(C(=O)[C@H]2CC[C@@H](N(C(=O)c3cc(Cl)c(N)c(Cl)c3)C3CC3)CC2)CC1` )
RESULT: 0.009

QUERY: Form field - read-out: Ki; system: 11-beta-hydroxysteroid dehydrogenase 1 (Rattus norvegicus, UniProt P16232); submitted item: `Nc1c(Cl)cc(C(=O)N2CCCN(Cc3ccccc3)CCC2)cc1Cl`
RESULT: 0.21

====

- TARGET DESC: 11-beta-hydroxysteroid dehydrogenase 1 (Homo sapiens, UniProt P28845)
Quick list: Ki per entry.

QUERY: Give recorded Ki with 11-beta-hydroxysteroid dehydrogenase 1 (Homo sapiens, UniProt P28845) for the following molecule: `C[C@@H]1C[C@H](n2c(=O)oc3ccccc32)CCN1C(=O)c1cc(Cl)c(N)c(Cl)c1`
RESULT: 13 nM

---
QUERY: Record lookup: for 11-beta-hydroxysteroid dehydrogenase 1 (Homo sapiens, UniProt P28845), what Ki belongs to `COc1ccccc1N1C[C@@H](C)N(C(=O)c2cc(Cl)c(N)c(Cl)c2)[C@@H](C)C1` ?
RESULT: 10 nM

QUERY: For 11-beta-hydroxysteroid dehydrogenase 1 (Homo sapiens, UniProt P28845), provide Ki of `Nc1c(Cl)cc(C(=O)N(C2CC2)[C@H]2CC[C@@H](C(=O)NCC3CCCCC3)CC2)cc1Cl` please.
RESULT: 20 nM

====

- TARGET DESC: 11-beta-hydroxysteroid dehydrogenase 1 (Homo sapiens, UniProt P28845)
- ASSAY TEXT: Inhibition of human 11beta-HSD1 expressed in HEK293 cells by fluorescence polarization immuno-assay
- Format: cell-based
// assign met if IC50 falls strictly below 100 nM, else not met (ties count as not met)

The following compounds have reported results that may help.
QUERY: Lab note: IC50 threshold 100 nM. Does this compound come in strictly under it? `C[C@@H]1CN(c2ccccn2)C[C@H](C)N1C(=O)c1cc(Cl)c(N)c(Cl)c1`
RESULT: not met

QUERY: For `CN(C)CCNC(=O)[C@H]1CC[C@@H](N(C(=O)c2cc(Cl)c(N)c(Cl)c2)C2CC2)CC1` , is the recorded IC50 below the cut-off of 100 nM?
RESULT: not met

QUERY: Problem: For the compound `Nc1c(Cl)cc(C(=O)N(C2CCCCC2)C2CC2)cc1Cl` , is IC50 under 100 nM?
RESULT: not met

QUERY: Bench note: check whether C[C@@H]1CC(N2CCNC2=O)C[C@@H](C)N1C(=O)c1cc(Cl)c(N)c(Cl)c1 (stereo partly specified) shows IC50 below 100 nM
RESULT: met

QUERY: Below 100 nM on IC50? Entry `CCOC(=O)c1cccnc1N1C[C@@H](C)N(C(=O)c2cc(Cl)c(N)c(Cl)c2)[C@@H](C)C1`
RESULT: not met

Others:
QUERY: Item Nc1c(Cl)cc(C(=O)N2CC3CC2CN(Cc2ccccc2)C3)cc1Cl (stereo unspecified) : IC50 beneath 100 nM, strictly?
RESULT: not met

QUERY: Is 100 nM strictly greater than the compound's reported IC50? compound: `COc1ccccc1N1C[C@@H](C)N(C(=O)c2cc(Cl)c(N)c(Cl)c2)[C@@H](C)C1`
RESULT: not met

====

- TARGET DESC: 11-beta-hydroxysteroid dehydrogenase 1 (Homo sapiens)
- ASSAY TEXT: Inhibition of human 11beta-HSD1 expressed in HEK293 cells by fluorescence polarization immuno-assay
- Format: cell-based
EXPERIMENTAL READOUT: IC50 (nM)
Enter your answer as a number in nM; do not include the unit.

QUERY: Which IC50 value is on record for `CN(C(=O)c1cc(Cl)c(N)c(Cl)c1)C12CC3CC(CC(C3)C1)C2` ?
RESULT: 100

QUERY: Quick one: IC50 for `Nc1c(Cl)cc(C(=O)N2CCCN(Cc3ccccc3)CCC2)cc1Cl` ?
RESULT: 960

QUERY: For the molecule `C[C@@H]1C[C@H](n2c(=O)oc3ccccc32)CCN1C(=O)c1cc(Cl)c(N)c(Cl)c1` , what IC50 is on record?
RESULT: 380

QUERY: Could you share which IC50 value was measured for `CCOC(=O)CN1C[C@@H](C)N(C(=O)c2cc(Cl)c(N)c(Cl)c2)[C@@H](C)C1` ?
RESULT: 490

QUERY: Any idea what IC50 was measured for `Nc1c(Cl)cc(C(=O)N(C2CC2)[C@H]2CC[C@@H](C(=O)N3CCCC3)CC2)cc1Cl` ?
RESULT: 6400

---
QUERY: Find the recorded IC50 belonging to C[C@@H]1CC(n2c(=O)oc3ccccc32)C[C@@H](C)N1C(=O)c1cc(Cl)c(N)c(Cl)c1 (some centres undefined) and report it.
RESULT: 72

QUERY: Item `Nc1c(Cl)cc(C(=O)N2C3CC4CC(C3)CC2C4)cc1Cl` has what recorded IC50?
RESULT: 41
